System: Botrytis cinerea
measurement-protocol: Antifungal activity against Botryotinia fuckeliana in cucumber cotyledon assessed as lesion area of the disease at 500 ug/ml after 4 days
Type: functional

# compound, Activity
records = [
    ("CCC1(C(=O)NCCc2csc(Cl)c2)C(C)C1(Cl)Cl (configuration not stated)", ">=80%"),
    ("CCC1(C(=O)NCCc2cc(Cl)cs2)C(C)C1(Cl)Cl (configuration not stated)", ">=80%"),
    ("CCC1(C(=O)NCCc2ccc(Cl)cc2Cl)C(C)C1(Cl)Cl (configuration not stated)", ">=80%"),
    ("CC1(C)C(Cl)(Cl)C1(C)C(=O)NCCc1csc(Cl)c1 (configuration not stated)", ">=80%"),
    ("CCC1(C(=O)NCCc2ccccc2)C(C)C1(Cl)Cl (configuration not stated)", ">=80%"),
    ("CCC1(C(=O)NCCc2cccc(Cl)c2)C(C)C1(Cl)Cl (configuration not stated)", ">=80%"),
    ("CCC1(C(=O)NC(C)C2CC3C=CC2C3)C(C)C1(Cl)Cl (configuration not stated)", "<40%"),
    ("CCCC1(C(=O)NCCc2csc(Cl)c2)CC1(Cl)Cl (configuration not stated)", "0.5%"),
    ("CCC1(C(=O)NC(C)C2CCCC2)C(C)C1(Cl)Cl (configuration not stated)", "3.5%"),
    ("CCC1(C(=O)NCCc2ccc(F)cc2)C(C)C1(Cl)Cl (configuration not stated)", ">=80%"),
    ("CCC1(C(=O)NCCc2cc(Cl)c(Cl)s2)C(C)C1(Cl)Cl (configuration not stated)", ">=80%"),
    ("CCC1(C(=O)NCCc2cc(Cl)sc2Cl)C(C)C1(Cl)Cl (configuration not stated)", ">=80%"),
]
